System: ParRC(pCW3) (Clostridium perfringens plasmid pCW3)
PROTOCOL_DESCRIPTION: SPR
MEASUREMENT_TYPE: binding signal

Please review the following examples before continuing.
| SEQUENCE_STRING | binding signal |
| --- | --- |
| TTTTGCAAGTAAAAAACATCACAATTTTAC / GTAAAATTGTGATGTTTTTTACTTGCAAAACCTACCCTACGTCCTCCTGC [parCC C15] | 217 RU |
| ACAATTTTACGTAATTTAGATTTTGCAAGT / ACTTGCAAAATCTAAATTACGTAAAATTGTCCTACCCTACGTCCTCCTGC [parCC C13] | 48 RU |
| AAAATGAAAAAAACATCACAATTTTACGGA / TCCGTAAAATTGTGATGTTTTTTTCATTTTCCTACCCTACGTCCTCCTGC [parCC C5] | 249 RU |
| AAAAAACATCACAATTTTACATAATAGAAA / TTTCTATTATGTAAAATTGTGATGTTTTTTCCTACCCTACGTCCTCCTGC [parCC C16] | 311 RU |
| TTTATTAATTTCACTATATGTATATACTGA / TCAGTATATACATATAGTGAAATTAATAAACCTACCCTACGTCCTCCTGC [parCB B1] | -2.8 RU |
| ATTTTACGGAAAATGCTTGATTTAGATTGA / TCAATCTAAATCAAGCATTTTCCGTAAAATCCTACCCTACGTCCTCCTGC [parCC C7] | 9 RU |
| CATAAACATCACAATTTTACGTAATTTAGA / TCTAAATTACGTAAAATTGTGATGTTTATGCCTACCCTACGTCCTCCTGC [parCC C12] | 348 RU |
| GTAATTTAGATTTTGCAAGTAAAAAACATC / GATGTTTTTTACTTGCAAAATCTAAATTACCCTACCCTACGTCCTCCTGC [parCC C14] | 42 RU |

Asked: Recorded binding signal of AAACATCACAATTTTACGGAAAATGCTTGA / TCAAGCATTTTCCGTAAAATTGTGATGTTTCCTACCCTACGTCCTCCTGC [parCC C6] , please.
Given back: 282 RU

Reference source for all entries: paper PMC9426499
